- SYSTEM: T1, human IL-33 (R&D Systems, #3625-IL-010/CF) (human, UniProt O95760 112-270)
- T1 construct: also called hIL-33; huIL-33
- T1 sequence (looked up): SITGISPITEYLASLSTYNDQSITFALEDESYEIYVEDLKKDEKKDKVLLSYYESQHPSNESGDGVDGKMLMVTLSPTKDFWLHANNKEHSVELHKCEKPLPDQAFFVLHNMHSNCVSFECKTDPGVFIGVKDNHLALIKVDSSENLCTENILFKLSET
- ASSAY DETAILS: SPR Biacore T200, 37 C
QUANTITY MEASURED: t1/2 (min)
Express your answer in min, writing the number without its unit.

Before answering, review these 3 worked examples.
BINDER	QUANTITY MEASURED	UNITS OF MEASURE	VALUE OBSERVED
H4H9629P (antibody, IgG4, V domains shown, also called RG4) VH: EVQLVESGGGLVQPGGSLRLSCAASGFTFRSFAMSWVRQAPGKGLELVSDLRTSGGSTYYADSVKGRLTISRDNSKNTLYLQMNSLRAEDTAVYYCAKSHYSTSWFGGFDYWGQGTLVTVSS VL: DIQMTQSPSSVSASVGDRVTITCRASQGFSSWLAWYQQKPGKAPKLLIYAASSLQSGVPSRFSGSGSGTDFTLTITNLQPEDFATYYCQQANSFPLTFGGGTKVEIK	t1/2	min	16
H1M9566N (antibody, IgG1, V domains shown, also called RG2) VH: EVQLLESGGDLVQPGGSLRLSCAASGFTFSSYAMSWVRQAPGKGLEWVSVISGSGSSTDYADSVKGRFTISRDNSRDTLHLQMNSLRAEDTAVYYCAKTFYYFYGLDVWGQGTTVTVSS VL: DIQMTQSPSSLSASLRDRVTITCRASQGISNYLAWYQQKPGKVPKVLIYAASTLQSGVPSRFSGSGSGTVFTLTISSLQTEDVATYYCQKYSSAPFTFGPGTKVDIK	t1/2	min	22
H4H9640P (antibody, IgG4, V domains shown, also called RG6) VH: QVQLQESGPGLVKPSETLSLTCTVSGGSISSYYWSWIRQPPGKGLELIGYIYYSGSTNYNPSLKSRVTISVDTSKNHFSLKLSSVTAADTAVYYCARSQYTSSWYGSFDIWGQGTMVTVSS VL: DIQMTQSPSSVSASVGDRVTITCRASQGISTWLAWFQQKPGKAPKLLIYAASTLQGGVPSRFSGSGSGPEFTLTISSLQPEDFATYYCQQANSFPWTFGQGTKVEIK	t1/2	min	18

Let us examine a further case.
For the binder shown here, H4H9633P (antibody, IgG4, V domains shown, also called RG5) VH: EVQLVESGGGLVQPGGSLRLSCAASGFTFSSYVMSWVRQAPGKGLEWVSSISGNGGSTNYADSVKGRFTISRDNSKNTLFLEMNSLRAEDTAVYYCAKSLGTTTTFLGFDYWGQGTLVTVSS VL: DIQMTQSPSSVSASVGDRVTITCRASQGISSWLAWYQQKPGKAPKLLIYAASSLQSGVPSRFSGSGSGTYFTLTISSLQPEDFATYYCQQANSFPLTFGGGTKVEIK , give the reported t1/2.
14
